target: Diamine acetyltransferase 1 (Mus musculus); experiment: Competitive inhibition at mouse recombinant SSAT expressed in Escherichia coli strain BL21(DE3)
MEASUREMENT_KIND: Ki (µM)
Write it as a number; the unit µM goes unstated.

Please give the measured Ki for this compound: CC(CCN)NCCCCN (stereo unspecified) 52

Ref: BindingDB's records for doi:10.1021/jm200293r
